- Test system: A. baumannii 5973
- method notes: Broth microdilution MIC
- Assay type: cell-based, Acinetobacter baumannii
- test context: A. baumannii 5973, Clinical isolate
- Procedure: Antibacterial activity of compounds MDN-0057, MDN-0058, MDN-0059 and MDN-0060 was evaluated using the broth microdilution methodology. […] The four compounds evaluated were serially diluted in 100% DMSO with a dilution factor of 2 to provide 10 compound concentrations starting at 8 mg/mL. […]
value kind: MIC

Hi there! I need MIC for each item below, if you can.
1. [C-]#[N+]C(=C)C(Cc1ccc(OC)cc1)([N+]#[C-])C1CC(O)C=CC1OC(=O)CO (stereo not shown) [MDN-0058]
2. [C-]#[N+]C(=C)C(Cc1ccc(OC)cc1)([N+]#[C-])C1CC(O)CCC1OC(C)=O (stereo not shown) [MDN-0059]
3. [C-]#[N+]C(=C)C(Cc1ccc(OC)cc1)([N+]#[C-])C1CC(O)CCC1OC(=O)CO (stereo not shown) [MDN-0057]
4. [C-]#[N+]C(=C)C(Cc1ccc(OC)cc1)([N+]#[C-])C1CC(O)C=CC1OC(C)=O (stereo not shown) [MDN-0060]

stdout:
["0.25 µg/mL", "0.5 to 1 µg/mL", "0.25 µg/mL", "1 to 2 µg/mL"]
